# measured-on: rat 5-HT7 receptor (Rattus norvegicus (Rat))
# test-method-notes: r5-HT7 binding assay, competitive radioligand binding with [3H]5-CT
# experimental-parameters: rat 5-HT7 receptor, HEK-293 membranes
assay-endpoint: pKi
// scale note: pKi = -log10(conc_M); give the bare number

CCC(Oc1ccc(Cl)cc1OC1CNC1)c1ccccc1 (stereo not shown) [Example 147]: 6.68
FC(F)(F)Sc1ccc(COc2ccc(Cl)cc2OC2CNC2)cc1 [Example 46]: 6.99
CN1CCC(Oc2cc(Br)ccc2OCc2ccccc2)C1 (racemic) [Example 98]: 7.64

Task: Return the recorded pKi value; entry: Clc1cccc(COc2ccc(-c3ccsc3)cc2OC2CNC2)c1 [Example 210]
Result: 6.30

====

# measured-on: rat 5-HT7 receptor (Rattus norvegicus (Rat), UniProt P32305)
# Sequence (P32305 1-435): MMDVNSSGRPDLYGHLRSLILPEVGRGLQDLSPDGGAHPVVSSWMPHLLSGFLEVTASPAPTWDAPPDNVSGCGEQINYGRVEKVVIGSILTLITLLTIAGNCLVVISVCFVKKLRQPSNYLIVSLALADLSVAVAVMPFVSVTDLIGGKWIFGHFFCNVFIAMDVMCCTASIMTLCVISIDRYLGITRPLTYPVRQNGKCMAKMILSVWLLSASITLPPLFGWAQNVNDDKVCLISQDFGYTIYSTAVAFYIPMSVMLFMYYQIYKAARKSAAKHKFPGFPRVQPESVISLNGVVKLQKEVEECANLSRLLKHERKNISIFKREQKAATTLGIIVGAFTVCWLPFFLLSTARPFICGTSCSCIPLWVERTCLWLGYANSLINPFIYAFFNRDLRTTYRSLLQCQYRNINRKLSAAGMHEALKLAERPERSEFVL
# test-method-notes: r5-HT7 binding assay, competitive radioligand binding with [3H]5-CT
# experimental-parameters: rat 5-HT7, HEK-293 membranes
Structures can show the parent of a compound that is named as a salt.
assay-endpoint: Ki (nM)
The response must be a number in nM with no trailing unit.

Task: Return the recorded Ki value; entry: Brc1ccc(Oc2ccc(Br)cc2OC2CNC2)cc1 [Example 250]
Result: 17

Task: Return the recorded Ki value; entry: O=C(c1ccccc1)c1ccc(Br)cc1OC1CNC1 [Example 280]
Result: 98

Task: Return the recorded Ki value; entry: Brc1cccc(Oc2ccc(Br)cc2OC2CNC2)c1 [Example 245]
Result: 9

Task: Return the recorded Ki value; entry: FC(F)(F)Oc1cccc(Oc2ccc(Br)cc2OC2CNC2)c1 [Example 253]
Result: 18

Task: Return the recorded Ki value; entry: Clc1ccc(OCc2nc(C3CC3)no2)c(OC2CNC2)c1 [Example 241, hydrochloride]
Result: 263

Task: Return the recorded Ki value; entry: Cc1cccc(C(=O)c2ccc(Br)cc2OC2CNC2)c1 [Example 284]
Result: 19

Task: Return the recorded Ki value; entry: Clc1cccc(Oc2ccc(Br)cc2OC2CNC2)c1 [Example 252]
Result: 7

Task: Return the recorded Ki value; entry: Clc1ccc(OC2CC(c3ccccc3)C2)c(OC2CNC2)c1 (centres unmarked) [Example 228]
Result: 9

====

# measured-on: r5-HT7 receptor (Rattus norvegicus (Rat))
# Sequence (P32305 1-435): as above
# test-method-notes: HitHunter cAMP assay, antagonist testing against 100 nM 5-CT
# Format: cell-based
# experimental-parameters: antagonist testing, 100 nM 5-CT challenge, HEK-293 r5-HT7; read-out: R5HT7 cAMP pKb (converted)
Here, each record is paired with measured log10 of Kb data.
Units before log transform: µM; reported quantity: Kb; transform: log10.

Task: Return the recorded log10 of Kb value; entry: `COc1ccc(COc2ccc(Br)cc2OC2CNC2)cc1Cl`
Result: -2.40

Task: Return the recorded log10 of Kb value; entry: Clc1ccc2c(c1)CCC2Oc1ccc(Br)cc1OC1CNC1 (racemic)
Result: -1.40

Task: Return the recorded log10 of Kb value; entry: `FC(F)(COc1ccc(Cl)cc1OC1CNC1)c1ccccc1`
Result: -1.30

Task: Return the recorded log10 of Kb value; entry: `Brc1ccc(OCc2ccccc2)c(OC2CNC2)c1`
Result: -1.90

Task: Return the recorded log10 of Kb value; entry: `Clc1cccc(Oc2ccc(Br)cc2OC2CNC2)c1`
Result: -1.20

Task: Return the recorded log10 of Kb value; entry: `ON=C(COc1ccc(Cl)cc1OC1CNC1)c1ccccc1`
Result: -1.70

Task: Return the recorded log10 of Kb value; entry: Fc1ccc2c(c1)C(Oc1ccc(Cl)cc1OC1CNC1)CC2 (racemic)
Result: -2.00

Task: Return the recorded log10 of Kb value; entry: `Clc1ccc(OCc2ccccc2)c(OC2CNC2)c1`
Result: -1.40

Task: Return the recorded log10 of Kb value; entry: `FC(F)(F)c1cccc(COc2ccc(Br)cc2OC2CNC2)c1`
Result: -2.10

Task: Return the recorded log10 of Kb value; entry: `O=C(c1cccc(Cl)c1)c1ccc(Br)cc1OC1CNC1`
Result: -0.70

Task: Return the recorded log10 of Kb value; entry: `CC(C)N1CC(Oc2cc(F)ccc2OCc2ccc(C(F)(F)F)o2)C1`
Result: -1.70

Where do the numbers come from? From patent US9981909B2.
